TARGET OR SYSTEM: T1, full length human DLL4 (human, UniProt Q9NR61 27-685)
T1 construct: whole, on cells; also called native DLL4 expressed in HEK293 cells
T1 sequence (Q9NR61 27-685): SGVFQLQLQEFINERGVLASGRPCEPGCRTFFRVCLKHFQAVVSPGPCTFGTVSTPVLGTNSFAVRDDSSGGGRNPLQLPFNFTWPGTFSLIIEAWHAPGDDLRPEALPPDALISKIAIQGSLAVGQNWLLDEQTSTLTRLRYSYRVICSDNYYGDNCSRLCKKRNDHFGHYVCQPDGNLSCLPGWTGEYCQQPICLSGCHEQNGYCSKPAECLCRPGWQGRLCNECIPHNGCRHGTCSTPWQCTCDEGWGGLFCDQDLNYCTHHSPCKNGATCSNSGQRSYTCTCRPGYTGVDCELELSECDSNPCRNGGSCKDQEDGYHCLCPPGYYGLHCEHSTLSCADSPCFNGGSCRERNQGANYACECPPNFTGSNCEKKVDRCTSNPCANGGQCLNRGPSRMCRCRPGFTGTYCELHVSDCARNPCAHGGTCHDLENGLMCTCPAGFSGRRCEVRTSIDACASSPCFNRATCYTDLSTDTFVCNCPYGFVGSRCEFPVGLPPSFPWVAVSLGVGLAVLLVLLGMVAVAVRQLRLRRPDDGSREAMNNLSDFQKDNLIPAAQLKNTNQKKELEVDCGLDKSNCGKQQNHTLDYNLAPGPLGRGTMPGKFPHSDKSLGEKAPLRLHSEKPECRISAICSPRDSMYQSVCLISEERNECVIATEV
ASSAY OVERVIEW: FMAT competition, supernatant vs Alexa-647 human Notch1/Fc, 293T cells with human DLL4
Exercise: for every item that follows, state its recorded % inhibition n = 1.
One number for each entry, in %.

9G8 (antibody, IgG4, V domains shown, Fully human; used for IgG4 rows and where no isotype is printed; also called 9G8 IgG4) VH: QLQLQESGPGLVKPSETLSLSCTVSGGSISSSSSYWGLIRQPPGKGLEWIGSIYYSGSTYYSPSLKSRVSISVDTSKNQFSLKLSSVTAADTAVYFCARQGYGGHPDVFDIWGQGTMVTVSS VL: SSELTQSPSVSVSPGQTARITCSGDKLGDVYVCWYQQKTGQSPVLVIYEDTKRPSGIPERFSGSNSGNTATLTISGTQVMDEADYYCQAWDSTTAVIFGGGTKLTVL; 112

Working through the 4 binders below one at a time, give % inhibition n = 1 for each.
1. 3A7 (antibody, IgG4, V domains shown, Fully human; also used where no isotype is printed) VH: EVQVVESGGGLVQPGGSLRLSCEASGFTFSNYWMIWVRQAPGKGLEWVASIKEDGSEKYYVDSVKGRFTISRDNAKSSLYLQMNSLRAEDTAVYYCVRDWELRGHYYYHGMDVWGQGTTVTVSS VL: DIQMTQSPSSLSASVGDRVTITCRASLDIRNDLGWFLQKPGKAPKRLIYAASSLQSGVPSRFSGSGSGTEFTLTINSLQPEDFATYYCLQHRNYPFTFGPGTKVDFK
2. 12A1 (antibody, IgG4, V domains shown, Fully human; also used where no isotype is printed) VH: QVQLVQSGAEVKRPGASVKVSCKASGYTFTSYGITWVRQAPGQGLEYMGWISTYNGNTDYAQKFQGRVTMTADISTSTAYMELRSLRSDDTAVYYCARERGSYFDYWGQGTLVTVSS VL: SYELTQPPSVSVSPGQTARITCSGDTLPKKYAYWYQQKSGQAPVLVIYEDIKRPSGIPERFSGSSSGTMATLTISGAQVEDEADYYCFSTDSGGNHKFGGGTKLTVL
3. 2H10 (antibody, IgG4, V domains shown, Fully human; used for IgG4 rows and where no isotype is printed; also called 2H10 IgG4) VH: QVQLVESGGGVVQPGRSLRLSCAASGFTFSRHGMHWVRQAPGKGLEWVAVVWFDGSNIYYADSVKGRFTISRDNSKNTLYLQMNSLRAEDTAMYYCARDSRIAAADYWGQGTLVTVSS VL: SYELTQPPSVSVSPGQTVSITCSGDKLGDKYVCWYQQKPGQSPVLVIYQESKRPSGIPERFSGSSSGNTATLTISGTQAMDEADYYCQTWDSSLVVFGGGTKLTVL
4. 1E4 (antibody, IgG2, V domains shown, Fully human; also used where no isotype is printed) VH: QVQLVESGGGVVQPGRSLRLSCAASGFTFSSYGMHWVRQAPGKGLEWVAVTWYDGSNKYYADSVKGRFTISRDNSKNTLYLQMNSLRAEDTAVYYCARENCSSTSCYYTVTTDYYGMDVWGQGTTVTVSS VL: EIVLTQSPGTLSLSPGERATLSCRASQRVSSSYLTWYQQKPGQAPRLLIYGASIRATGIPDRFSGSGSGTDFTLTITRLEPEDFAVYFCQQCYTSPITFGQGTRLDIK

[105, 103, 107, 98]

Source listed as patent US20100196385A1.
